Experiment: chemical genetic growth profiling, strain panel (AID 1159580);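 also: tested at 20 µM; growth read once vehicle control cultures reached saturation at 30 °C; 1 = growth at the plate median or of vehicle wells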
Settings: S. cerevisiae deletion strains, growth OD, locus YEL061C, strain CIN8 (second series), stronger effect = lower value
About 2,000 (36%) of roughly 5,500 compounds were called active. Not shown: some 18% with an inconclusive outcome. This is one part of the list.
experimental-endpoint: normalized growth

[[record]]
molecule = "C=CC(C1=CC(=O)C=CC1=O)c1ccccc1 (stereo unspecified)"
experimental_endpoint = "normalized growth"
result = "1.01 (inactive)"

[[record]]
molecule = "Cc1ccc(/C(=C\\CN2CCCC2)c2ccccn2)cc1"
experimental_endpoint = "normalized growth"
result = "1.01 (inactive)"

[[record]]
molecule = "CN(C)CCOC(C)(c1ccccc1)c1ccccn1 (stereo unspecified)"
experimental_endpoint = "normalized growth"
result = "1.01 (inactive)"

[[record]]
molecule = "CCN(CC)CCOc1ccc2c(c1)C(=O)c1cc(OCCN(CC)CC)ccc1-2"
experimental_endpoint = "normalized growth"
result = "0.986 (inactive)"

[[record]]
molecule = "C1CNCCN1"
experimental_endpoint = "normalized growth"
result = "1.01 (inactive)"

[[record]]
molecule = "COc1cc(C(=O)NCc2ccc(OCCN(C)C)cc2)cc(OC)c1OC"
experimental_endpoint = "normalized growth"
result = "0.978 (inactive)"


* * *

Assay: chemical genetic growth profiling, strain panel (AID 1159580);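 also: tested at 20 µM; growth read once vehicle control cultures reached saturation at 30 °C; 1 = growth at the plate median or of vehicle wells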
Conditions: S. cerevisiae deletion strains, growth OD, locus YMR277W, strain FCP1
Hit rate of the full screen: of about 5,500 compounds, about 2,000 (36%) were called active. About 18% were inconclusive and are not listed. Rule as the data show it: active = normalized growth mostly below about 0.91 (no sharp cut-off); inconclusive = no clear call, values can overlap the other calls; inactive = mostly above about 0.92. Some of the results follow.
Outcomes: 1 = active, 0 = inactive

[[record]]
molecule = "CCCc1c(C(=O)NC2Cc3ccccc3C2)cnn1-c1ccccc1"
class = 0

[[record]]
molecule = "Cc1cc(Br)ccc1-n1c(Sc2c([N+](=O)[O-])cc(C(F)(F)F)cc2[N+](=O)[O-])nc2ccccc2c1=O"
class = 0

[[record]]
molecule = "S=C(N/N=C\\c1ccc(Cl)cc1)N/N=C\\c1ccc(Cl)cc1"
class = 0

[[record]]
molecule = "O=[N+]([O-])c1ccccc1CS(=O)(=O)c1nc2ccccc2s1"
class = 1

[[record]]
molecule = "O=C(Nc1ccc(C(F)(F)F)cc1)N1CCN(c2ccnc3cc(Cl)ccc23)CC1"
class = 0

[[record]]
molecule = "N#CC(C#N)=C/C=C(/Sc1nc2ccccc2s1)c1ccc(Br)cc1"
class = 1

[[record]]
molecule = "C/C(=C\\c1ccc2c(c1)OCO2)[N+](=O)[O-]"
class = 1

[[record]]
molecule = "CC(C)c1ccc(NC(=S)NC(=O)c2ccccc2)cc1"
class = 0

[[record]]
molecule = "CC(=O)Nc1ccc(/C=C/[N+](=O)[O-])cc1"
class = 0

[[record]]
molecule = "CC(C)c1ccc(NCC(O)CSc2ccccc2)cc1 (centres undefined)"
class = 0

[[record]]
molecule = "N#CC(C#N)=C/C=C(/Sc1ccc(F)c(Cl)c1)c1ccc(Cl)cc1"
class = 0

[[record]]
molecule = "O=C(c1ccccc1)c1cc(Cl)ccc1NC(=S)Nc1ccc(F)cc1"
class = 0

[[record]]
molecule = "Cn1c(CSCCOc2ccccc2)nnc1SCc1ccc(Cl)cc1Cl"
class = 0

[[record]]
molecule = "COc1ccc(C(=O)CSC2=NCCc3ccccc32)cc1"
class = 0


* * *

Experiment: chemical genetic growth profiling, strain panel (AID 1159580);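 also: tested at 20 µM; growth read once vehicle control cultures reached saturation at 30 °C; 1 = growth at the plate median or of vehicle wells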
Conditions: S. cerevisiae deletion strains, growth OD, locus YMR263W, strain SAP30
Out of some 5,500 compounds screened, about 2,000 (36%) were called active. Roughly 18% stayed inconclusive and do not appear here. No stated cut-off is given here; in the data, active means normalized growth mostly below about 0.91 (no sharp cut-off); inconclusive means no clear call, values can overlap the other calls; inactive means mostly above about 0.92. The list shows a part of the results.
Outcomes: active, inactive

[[record]]
mol_smiles = "Nc1ccc(C(=O)NCC(=O)O)cc1"
class = "inactive"

[[record]]
mol_smiles = "O=[N+]([O-])/C=C/c1ccsc1"
class = "active"

[[record]]
mol_smiles = "O=C(NCCSCc1ccc(Cl)cc1)c1ccc(Cl)cc1"
class = "inactive"

